target: MAGL (Homo sapiens); experiment: In vitro competitive activity-based protein profiling, PC3 human cell membrane proteomes; format: biochemical; parameters: endogenous in cells; host or cells: PC3 human cells (membrane proteome); settings: 1 μM; human PC3 membrane proteome; read-out: MAGL % inh. 1 μM (human PC3)
PROPERTY LABEL: inhibition at 1 µM (%)

>>> print(df.to_string())
                                   compound  measurement_units  recorded_value
0  CN(C(=O)C1CC12CCN(C(=O)OC(C(F)(F)F)C(F)(F)F)CC2)c1ccccn1 (single isomer, unassigned)                  %             100
1  O=C(OC(C(F)(F)F)C(F)(F)F)N1CCC2(CC1)CC2C(=O)N1CCn2c(nnc2C2CC2)C1 (racemic)                  %              90
2  O=C(Nc1cccnc1)[C@@H]1CC12CCN(C(=O)OC(C(F)(F)F)C(F)(F)F)CC2 (single isomer, unassigned)                  %             100
3  O=C(Nc1cncc(F)c1)C1CC12CCN(C(=O)OC(C(F)(F)F)C(F)(F)F)CC2 (single isomer, unassigned)                  %              90
4  O=C(Nc1cccc(C(F)(F)F)n1)C1CC12CCN(C(=O)OC(C(F)(F)F)C(F)(F)F)CC2 (single isomer, unassigned)                  %             100
5  O=C(OC(C(F)(F)F)C(F)(F)F)N1CCC2(CC1)CC2C(=O)N1CCN(C2CC2)CC1 (racemic)                  %             100

###

target: MAGL (Homo sapiens, UniProt Q99685); assay: In vitro competitive activity-based protein profiling, PC3 human cell membrane proteomes; assay type: biochemical; parameters: endogenous in cells; host or cells: PC3 human cells (membrane proteome); details: human PC3 membrane proteome
PROPERTY LABEL: IC50 (µM)

P. O=C(Nc1cccnc1)[C@@H]1CC12CCN(C(=O)OC(C(F)(F)F)C(F)(F)F)CC2 (single isomer, unassigned) [Example 3]
Q. N#CC1CCN(C(=O)C2CC23CCN(C(=O)OC(C(F)(F)F)C(F)(F)F)CC3)CC1 (single isomer, unassigned) [Example 124]
Input: Recorded IC50 values differ for P and Q ; which one is higher? Label of pick, please.
Output: Q

###

molecular target: MAGL (Homo sapiens, UniProt Q99685); assay: In vitro competitive activity-based protein profiling, PC3 human cell membrane proteomes; type: biochemical; parameters: endogenous in cells; host or cells: PC3 human cells (membrane proteome); conditions: human PC3 membrane proteome
PROPERTY LABEL: IC50 (µM)

Worked cases, answers included:
                                   molecule                         study_system  recorded_value
0  CP(C)(=O)c1ccc(NC(=O)C2CC23CCN(C(=O)OC(C(F)(F)F)C(F)(F)F)CC3)cn1 (single isomer, unassigned) [Example 20]  MAGL (Homo sapiens, UniProt Q99685)           0.029
1  O=C(Nc1cccnn1)[C@@H]1CC12CCN(C(=O)OC(C(F)(F)F)C(F)(F)F)CC2 [Example 5]  MAGL (Homo sapiens, UniProt Q99685)            0.18

1. CC(=O)Nc1ccc(NC(=O)C2CC23CCN(C(=O)OC(C(F)(F)F)C(F)(F)F)CC3)cn1 (single isomer, unassigned) [Example 172]
2. O=C(Nc1cccnc1C(F)(F)F)C1CC12CCN(C(=O)OC(C(F)(F)F)C(F)(F)F)CC2 (single isomer, unassigned) [Example 84]
3. CN(C(=O)[C@@H]1CC12CCN(C(=O)OC(C(F)(F)F)C(F)(F)F)CC2)c1cnccn1 (single isomer, unassigned) [Example 11]
4. O=C(OC(C(F)(F)F)C(F)(F)F)N1CCC2(CC1)CC2C(=O)N1CCn2c(nnc2C2CC2)C1 (racemic) [Example 185]
Input: Write the entries in order, lowest recorded IC50 first. # the answer lists labels in the order requested
Output: 2, 3, 1, 4
(2: 0.0089 µM, 3: 0.032 µM, 1: 0.13 µM, 4: 0.4 µM)

###

Target: MAGL (Homo sapiens, UniProt Q99685)
Sequence (Q99685 1-303): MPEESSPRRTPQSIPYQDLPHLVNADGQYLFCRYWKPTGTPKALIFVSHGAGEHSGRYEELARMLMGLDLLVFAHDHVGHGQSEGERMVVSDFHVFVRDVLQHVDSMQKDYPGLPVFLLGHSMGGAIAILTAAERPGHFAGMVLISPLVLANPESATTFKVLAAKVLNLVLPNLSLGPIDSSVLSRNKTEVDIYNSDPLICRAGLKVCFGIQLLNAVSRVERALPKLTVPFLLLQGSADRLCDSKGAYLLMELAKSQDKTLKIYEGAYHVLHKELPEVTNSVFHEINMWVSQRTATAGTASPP
Assay: In vitro competitive activity-based protein profiling, PC3 human cell membrane proteomes
Format: biochemical
Parameters: endogenous in cells; host or cells: PC3 human cells (membrane proteome)
Conditions: 1 μM; human PC3 membrane proteome; read-out: MAGL % inh. 1 μM (human PC3)
PROPERTY LABEL: inhibition at 1 µM (%)

                                   molecule                         study_system      property_label  measurement_units  recorded_value
0  O=C(Nc1ccnc(C(F)(F)F)n1)[C@@H]1CC12CCN(C(=O)OC(C(F)(F)F)C(F)(F)F)CC2 (single isomer, unassigned)  MAGL (Homo sapiens, UniProt Q99685)  inhibition at 1 µM                  %             100
1  O=C(OC(C(F)(F)F)C(F)(F)F)N1CCC2(CC1)CC2C(=O)N1CCn2cc(C(F)(F)F)nc2C1 (single isomer, unassigned)  MAGL (Homo sapiens, UniProt Q99685)  inhibition at 1 µM                  %             100
2  O=C(Nc1cccnc1C(F)(F)F)C1CC12CCN(C(=O)OC(C(F)(F)F)C(F)(F)F)CC2 (single isomer, unassigned)  MAGL (Homo sapiens, UniProt Q99685)  inhibition at 1 µM                  %             100

###

target: MAGL (Homo sapiens, UniProt Q99685); assay: In vitro competitive substrate hydrolysis enzyme activity assay (pNPA), HEK293 cell lysates; format: biochemical; set-up: expressed in transfected cells; host or cells: HEK293; details: HEK293 lysate
PROPERTY LABEL: IC50 (µM)

// worked examples, IC50 included
>>> print(df.to_string())
                                   compound                         study_system  recorded_value
0  O=C(Nc1cccnc1C(F)(F)F)C1CC12CCN(C(=O)OC(C(F)(F)F)C(F)(F)F)CC2 (single isomer, unassigned) [Example 84]  MAGL (Homo sapiens, UniProt Q99685)          0.0101
1  CN(C(=O)C1CC12CCN(C(=O)OC(C(F)(F)F)C(F)(F)F)CC2)c1ccccn1 (single isomer, unassigned) [Example 45]  MAGL (Homo sapiens, UniProt Q99685)            0.06

1. O=C(Nc1cccc(C(F)(F)F)n1)C1CC12CCN(C(=O)OC(C(F)(F)F)C(F)(F)F)CC2 (single isomer, unassigned) [Example 73]
2. O=C(Nc1ccccn1)C1CC12CCN(C(=O)OC(C(F)(F)F)C(F)(F)F)CC2 (single isomer, unassigned) [Example 48]
3. CN(C(=O)C1CC12CCN(C(=O)OC(C(F)(F)F)C(F)(F)F)CC2)c1cccnc1 (single isomer, unassigned) [Example 43]
4. Cc1ccc(NC(=O)C2CC23CCN(C(=O)OC(C(F)(F)F)C(F)(F)F)CC3)cn1 (single isomer, unassigned) [Example 81]
Input: Could you please order the items by IC50, going from the lowest number to the highest? # output: labels, in the requested order
Output: 1, 4, 2, 3
(1: 0.0003 µM, 4: 0.000864 µM, 2: 0.139 µM, 3: 0.244 µM)

###

System: cryopreserved human hepatocytes
Assay: In vitro human hepatocyte stability
Format: in vitro ADME
Details: human hepatocytes 0.5×10^6 cells/mL, 1 μM
Method: The metabolic stability of test articles (1 μM) in commercially sourced, pooled donor, cryopreserved human hepatocytes (0.5×10^6 cells/mL) was determined in duplicate. The CLint reactions (250 μL) were initiated by addition of test compound. […] The in vitro half-life (in vitro t½) was determined from the slope value: in vitro t1/2=−0.693/k. […]
// reported Scaled-up unbound CLint per item
Please reply with the bare figure in mL/min/kg and do not write the unit itself.

// worked examples, Scaled-up unbound CLint included
In [3]: df
Out[3]:
                                   molecule           property_label  measurement_units  recorded_value
0  O=C(Nc1cncs1)C1CC12CCN(C(=O)OC(C(F)(F)F)C(F)(F)F)CC2 (single isomer, unassigned)  Scaled-up unbound CLint          mL/min/kg           53.56
1  O=C(Nc1ccc(-n2cccn2)nc1)C1CC12CCN(C(=O)OC(C(F)(F)F)C(F)(F)F)CC2 (single isomer, unassigned)  Scaled-up unbound CLint          mL/min/kg           32.74
2  Cc1cnc(NC(=O)C2CC23CCN(C(=O)OC(C(F)(F)F)C(F)(F)F)CC3)cn1 (single isomer, unassigned)  Scaled-up unbound CLint          mL/min/kg            9.59
3  CS(=O)(=O)Nc1ccc(NC(=O)C2CC23CCN(C(=O)OC(C(F)(F)F)C(F)(F)F)CC3)cn1 (single isomer, unassigned)  Scaled-up unbound CLint          mL/min/kg            1.94
4  O=C(Nc1cccnn1)[C@H]1CC12CCN(C(=O)OC(C(F)(F)F)C(F)(F)F)CC2  Scaled-up unbound CLint          mL/min/kg            5.79

Kindly consider the entry below.
Input: Look up Scaled-up unbound CLint of O=C(NCc1ccccc1)[C@H]1CC12CCN(C(=O)OC(C(F)(F)F)C(F)(F)F)CC2 (single isomer, unassigned) and report it.
Output: 88.79
